These measurements were taken from patent US7534806B2.

Assay: in vivo
Settings: rat, po, 50 mg/kg
Description: Pharmacokinetics. […] Following dosing (time t=0), serial bleeding from n=3 rats/time point and 6 time points interspersed between 5 min and 6 hr was obtained, plasma was isolated, and ibudilast concentrations were determined by a HPLC and two-dimensional mass spectrometry (LC/MS/MS) method (described in Example 4) sensitive to ≦1 ng/ml. […]
measured.parameter: Cmax (ng/mL)

>>> print(df.to_string())
                     entry_smiles  numeric_result
0  CC(C)C(=O)c1c(C(C)C)nn2ccccc12             387

----------
Assay: in vivo
Settings: rat, ip, 7.5 mg/kg
Description: Pharmacokinetics. […] Following dosing (time t=0), serial bleeding from n=3 rats/time point and 6 time points interspersed between 5 min and 6 hr was obtained, plasma was isolated, and ibudilast concentrations were determined by a HPLC and two-dimensional mass spectrometry (LC/MS/MS) method (described in Example 4) sensitive to ≦1 ng/ml. […]
measured.parameter: Cmax

In [3]: df
Out[3]:
                                   compound      result
0  CC(C)C(=O)c1c(C(C)C)nn2ccccc12 [Ibudilast]  1.71 µg/mL
